Taken from ChEMBL document CHEMBL1201862.

Tested on: SNB-75
test-details: NCI tumour cell line growth inhibition, 48 h
Activity calls are given as the source filed them. Cut-off read from the data, not from the text of the source: active = GI50 up to about 1.1 µM and inactive = higher.
measure: GI50

[ask] Output GI50 of `COc1ccc2[nH]c3c(C)c4ccnc(NCCCN(C)CCCNC(=O)NCCCN(C)CCCNc5nccc6c(C)c7[nH]c8ccc(OC)cc8c7c(C)c56)c4c(C)c3c2c1`
[reply] 0.402 µM (active)

[ask] Output GI50 of `Cc1ccnc2nc(-c3cccc4ccccc34)cc(O)c12`
[reply] 0.00255 µM (active)

[ask] Output GI50 of `O=C(NNC(=S)Nc1ccc(Cl)cc1)C12CC3CC(CC(C3)C1)C2`
[reply] 15.6 µM (inactive)

[ask] Output GI50 of Cc1ccccc1NC(=O)C(=O)C(C#N)c1ccc(Cl)cc1 (centres undefined)
[reply] > 100 µM (inactive)

[ask] Output GI50 of `O=C1Cc2c([nH]c3ccccc23)-c2ccccc2N1`
[reply] 19.8 µM (inactive)

[ask] Output GI50 of `C[As+](C)(c1ccc(Br)c([N+](=O)[O-])c1)c1ccc(Br)c([N+](=O)[O-])c1`
[reply] > 100 µM (inactive)

[ask] Output GI50 of `C[n+]1c(-c2ccc(NC(=O)c3ccc(C(=O)Nc4ccc(-c5cn6ccccc6[n+]5C)cc4)cc3)cc2)cn2ccccc21`
[reply] 60.8 µM (inactive)

[ask] Output GI50 of `Cc1cccc(C)c1NC(=O)C(=O)Nn1c(NN)nc2ccccc2c1=O`
[reply] > 100 µM (inactive)

[ask] Output GI50 of CC(O)/C=C/C1OC(=O)CC1Nc1ccc(C=O)cc1 (centres undefined)
[reply] > 100 µM (inactive)
